# key: entry, value: T/C
Tested on: CD2F1 mice, L1210 leukemia ip, survival T/C
TEST: NCI In Vivo Anticancer Drug Screen. Data for tumor model L1210 Leukemia (intraperitoneal) in CD2F1 (CDF1) mice
CONDITION_CONTEXT: endpoint: mean survival time; dose: 100.0 mg/kg/injection; schedule: Q04DX003 (ip); vehicle: saline with Tween-80; higher = longer survival
Inconclusive results and toxic doses are left out.
METRIC_NAME: T/C

1. Cc1ccc(S(=O)(=O)OCC(OS(=O)(=O)c2ccc(C)cc2)C(O)C(O)C(O)CO)cc1 (stereo unspecified) ... 97 % of control
2. CSCC(NC(=O)OCc1ccccc1)C(=O)O (stereo unspecified) ... 101 % of control
3. CC(O)(c1ccc(Cl)cc1)c1ccc(Cl)cc1 ... 106 % of control
4. CCOC1=C([N+](=O)[O-])C(c2ccccc2)NC1=O (stereo unspecified) ... 95 % of control
5. O=C(O)C(NC1CCCCC1)c1ccccc1 (stereo unspecified) ... 92 % of control
6. CCCCNC(=S)S ... 100 % of control
7. CCCCC(NCCNC(CCCC)C(=O)O)C(=O)O (stereo unspecified) ... 102 % of control
8. c1ccc(OCCC[P+](c2ccccc2)(c2ccccc2)c2ccccc2)cc1 ... 92 % of control
9. CCCCCCCCCCCCCC(=O)N1CCOCC1 ... 97 % of control
10. O=C(Nc1cc(Cl)ccc1Cl)c1ccc(C(=O)Nc2cc(Cl)ccc2Cl)cc1 ... 92 % of control
11. COc1ccc(CCl)cc1CCl ... 102 % of control
12. N=Cc1c(O)n(-c2ccccc2)c(=O)n(-c2ccccc2)c1=O ... 94 % of control
13. NN(C(=O)c1ccccc1)c1ccccc1 ... 95 % of control
14. CCCCOC(=O)C(N)=O ... 97 % of control
15. O=C(CCCN1CCN2Cc3[nH]c4ccccc4c3CC2C1)c1ccc(F)cc1 (stereo unspecified) ... 103 % of control
16. COc1ccccc1NC(=O)Nc1cccc(Cl)c1 ... 94 % of control
17. COc1ccc(NC(=O)Nc2ccccc2F)cc1 ... 102 % of control
18. Nc1cccc(CCCCc2ccc(Cl)c(S(=O)(=O)F)c2)c1 ... 106 % of control
19. CC(=O)c1ccc2c3c(ccc([N+](=O)[O-])c13)C(=O)OC2=O ... 91 % of control
20. CCC1(c2cccc([N+](=O)[O-])c2)OCCO1 ... 102 % of control
21. COC(=O)CCC(C)(c1ccc(O)cc1)c1ccc(O)cc1 ... 103 % of control
22. Cc1nc(-c2ccccc2)[nH]c(=O)c1CC(C)O (stereo unspecified) ... 94 % of control
23. Cc1ccc(NC(=O)c2ccccc2Cl)cc1 ... 95 % of control
24. ClSc1c(Cl)c(Cl)c(Cl)c(Cl)c1Cl ... 95 % of control
25. COCC1C(N)C(C)NC(Cl)C1C#N (stereo unspecified) ... 95 % of control
26. Cc1ccc(C)c(NC(=O)c2cccc(Cl)c2)c1 ... 94 % of control

These measurements were taken from PubChem BioAssay AID256.
